Provide the recorded IC50 for the entries that follow.
Study System: Human Cav3.1 (Homo sapiens (Human))
Sequence (O43497 whole entry): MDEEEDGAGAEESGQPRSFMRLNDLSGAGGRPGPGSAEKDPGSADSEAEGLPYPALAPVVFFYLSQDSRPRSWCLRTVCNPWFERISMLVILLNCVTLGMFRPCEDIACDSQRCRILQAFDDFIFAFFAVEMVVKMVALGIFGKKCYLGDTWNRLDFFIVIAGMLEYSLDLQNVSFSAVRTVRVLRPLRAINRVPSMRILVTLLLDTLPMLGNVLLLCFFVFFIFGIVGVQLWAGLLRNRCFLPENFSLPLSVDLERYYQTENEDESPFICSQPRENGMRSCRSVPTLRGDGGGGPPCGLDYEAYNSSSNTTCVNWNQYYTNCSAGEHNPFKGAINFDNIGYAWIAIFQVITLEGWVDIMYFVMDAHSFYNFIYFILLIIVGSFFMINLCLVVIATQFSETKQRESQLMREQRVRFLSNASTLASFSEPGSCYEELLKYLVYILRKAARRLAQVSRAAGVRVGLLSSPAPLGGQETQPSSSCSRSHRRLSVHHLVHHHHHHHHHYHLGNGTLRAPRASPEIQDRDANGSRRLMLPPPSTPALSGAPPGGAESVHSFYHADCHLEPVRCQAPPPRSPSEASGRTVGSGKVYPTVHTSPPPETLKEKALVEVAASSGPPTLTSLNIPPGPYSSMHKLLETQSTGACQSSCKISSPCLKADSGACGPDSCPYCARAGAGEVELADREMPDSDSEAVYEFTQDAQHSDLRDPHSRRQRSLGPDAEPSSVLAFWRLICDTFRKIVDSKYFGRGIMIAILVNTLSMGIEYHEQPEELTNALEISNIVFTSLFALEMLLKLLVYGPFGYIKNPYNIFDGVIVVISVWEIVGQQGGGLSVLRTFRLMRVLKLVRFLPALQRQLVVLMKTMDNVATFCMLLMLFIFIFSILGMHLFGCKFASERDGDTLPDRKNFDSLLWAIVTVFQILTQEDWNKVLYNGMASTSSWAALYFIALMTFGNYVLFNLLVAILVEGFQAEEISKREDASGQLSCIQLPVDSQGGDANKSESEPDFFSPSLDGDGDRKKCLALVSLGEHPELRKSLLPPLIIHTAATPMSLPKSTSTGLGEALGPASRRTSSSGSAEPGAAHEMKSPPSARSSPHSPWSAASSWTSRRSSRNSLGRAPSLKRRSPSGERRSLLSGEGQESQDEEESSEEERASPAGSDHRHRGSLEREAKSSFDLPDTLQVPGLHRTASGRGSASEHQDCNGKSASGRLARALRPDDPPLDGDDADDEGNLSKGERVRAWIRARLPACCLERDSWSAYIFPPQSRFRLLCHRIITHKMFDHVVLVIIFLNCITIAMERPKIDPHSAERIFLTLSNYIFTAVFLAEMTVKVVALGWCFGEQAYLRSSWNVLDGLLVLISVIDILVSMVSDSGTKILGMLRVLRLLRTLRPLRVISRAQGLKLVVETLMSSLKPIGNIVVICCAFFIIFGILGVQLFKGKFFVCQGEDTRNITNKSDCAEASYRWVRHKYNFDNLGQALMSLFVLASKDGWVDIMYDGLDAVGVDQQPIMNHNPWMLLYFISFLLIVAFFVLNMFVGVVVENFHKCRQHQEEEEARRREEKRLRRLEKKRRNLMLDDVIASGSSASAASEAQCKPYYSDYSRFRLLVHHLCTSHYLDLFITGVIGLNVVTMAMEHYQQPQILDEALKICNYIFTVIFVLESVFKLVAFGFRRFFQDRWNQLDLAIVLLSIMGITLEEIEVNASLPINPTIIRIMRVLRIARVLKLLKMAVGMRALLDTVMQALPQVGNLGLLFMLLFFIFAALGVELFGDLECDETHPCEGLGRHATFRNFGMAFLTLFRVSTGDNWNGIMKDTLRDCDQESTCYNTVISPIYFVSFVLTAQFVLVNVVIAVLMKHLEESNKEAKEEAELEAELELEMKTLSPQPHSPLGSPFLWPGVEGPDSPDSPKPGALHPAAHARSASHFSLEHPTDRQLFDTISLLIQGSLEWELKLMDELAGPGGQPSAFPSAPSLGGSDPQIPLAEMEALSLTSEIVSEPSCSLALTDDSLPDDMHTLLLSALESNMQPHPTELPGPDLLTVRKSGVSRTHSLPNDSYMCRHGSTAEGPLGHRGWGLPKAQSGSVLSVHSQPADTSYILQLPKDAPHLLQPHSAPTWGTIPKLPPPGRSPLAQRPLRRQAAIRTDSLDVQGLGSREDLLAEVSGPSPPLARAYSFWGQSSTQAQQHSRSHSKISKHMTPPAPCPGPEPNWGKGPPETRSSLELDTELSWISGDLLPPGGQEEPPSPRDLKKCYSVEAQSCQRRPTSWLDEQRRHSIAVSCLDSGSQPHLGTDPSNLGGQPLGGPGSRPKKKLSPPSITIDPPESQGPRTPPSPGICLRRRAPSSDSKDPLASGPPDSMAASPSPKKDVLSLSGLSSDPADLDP
Assay Overview: Human Cav3.1 calcium channel patch clamp assay (SyncroPatch 384PE, HEK-293 natClytin/TASK1+Cav3.1 cell line)
Format: cell-based
Experimental Setup: voltage dependent block (VDB); read-out: Cav3.1 (VDB) IC50
// note: answer is a bare numeric in nM

Short answer please: IC50, Human Cav3.1 (Homo sapiens (Human)), entry CCC(C)(C)N(C)C(=O)CN1CC2(CCC(C(=O)Nc3cc(F)cc(C(F)F)c3)CC2)C1
199

Further, for CC1(S(=O)(=O)NCCN2CC3(CCC(C(=O)Nc4cc(F)cc(C(F)F)c4)CC3)C2)CC1 ?
550

Further, for N#CC1(CN2CC3(CCC(C(=O)Nc4cc(F)cc(OC(F)F)c4)CC3)C2)CC1 ?
1010

Further, for CC(C)(NC(=O)CN1CC2(CCC(C(=O)Nc3cccc(C(F)(F)F)c3)CC2)C1)C(F)(F)F ?
372

Further, for O=C(Nc1cc(F)cc(Cl)c1)C1CCC2(CC1)CN(CC(F)C1CCCC1)C2 (centres unmarked) ?
439

Further, for O=C(Nc1cc(F)cc(C(F)F)c1)C1CCC2(CC1)CN(CCC1CCC(F)(F)CC1)C2 ?
323

Further, for O=C(CN1CC2(CCC(C(=O)Nc3cccc(OC(F)F)c3)CC2)C1)NC1(C(F)(F)F)CCC1 ?
231

Further, for O=C(Nc1cc(F)cc(Cl)c1)C1CCC2(CC1)CN(CC1(F)CCC(F)(F)CC1)C2 ?
333
